measurementProtocol: Acv concentration in guinea pig blood
Type: in vivo
measurementParameters: serum, 200 mg, Acv (200 mg) + 5 mg/ml of Cryt. f.#, one hour, read-out: Acv Concentration in Blood, Mean ± σ
measure: concentration at 1 h (µM)
Please state the figure in µM; there is no need to write the unit.

Give recorded concentration at 1 h. Nc1nc2c(ncn2COCCO)c(=O)[nH]1 [Acyclovir, acyclovir] 88.3

====

measurementProtocol: Acv concentration in guinea pig blood
Type: in vivo
measurementParameters: serum, 200 mg, Acv (200 mg), one hour, read-out: Acv Concentration in Blood, Mean ± σ
measure: concentration at 1 h (µM)
Report only the number, with the unit µM understood.

Annotate the compound Nc1nc2c(ncn2COCCO)c(=O)[nH]1 with its measured concentration at 1 h. 88.6

====

measurementProtocol: Acv concentration in guinea pig blood
Type: in vivo
measurementParameters: serum, 200 mg, Acv (200 mg) + 5 mg/ml of Cryt. f.#, one hour, individual samples, read-out: Acv Concentration in Blood
measure: concentration at 1 h (µM)
# output: bare number, implied unit µM

Return the recorded concentration at 1 h value; entry: Nc1nc2c(ncn2COCCO)c(=O)[nH]1 92.9

====

measurementProtocol: Acv level in mouse blood (p.o.)
Assay type: in vivo, DDY male mouse
measurementParameters: Acv (100 mg/kg) + 20 mg/ml of Cryt. f.#, p.o.; read-out: Acv Blood Level, Mean ± σ
measure: concentration (µM)
API: value field is a number in µM; no unit string.

Consider the molecule Nc1nc2c(ncn2COCCO)c(=O)[nH]1 and give its recorded concentration. 2.59

====

measurementProtocol: Acv concentration in guinea pig blood
Type: in vivo
measurementParameters: serum, 200 mg, Acv (200 mg) + 1 mg/ml of Cryt. f.#, one hour, individual samples, read-out: Acv Concentration in Blood
measure: concentration at 1 h (µM)
Number in µM, nothing else.

Please list concentration at 1 h recorded for the compound Nc1nc2c(ncn2COCCO)c(=O)[nH]1 [Acyclovir, acyclovir] 76.4
